B1: Membrane-associated guanylate kinase, WW and PDZ domain-containing protein 2, residues 601 to 682; numbered along this chain, Q86UL8 (parent)
chain: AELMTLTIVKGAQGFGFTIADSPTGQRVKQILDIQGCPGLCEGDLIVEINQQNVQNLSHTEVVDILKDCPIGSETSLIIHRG

# Variants of: B1
# Method Summary: abundance fitness (aPCA) (normalised: wild type 0, dead -1); higher = more abundant; growth selection in yeast, the domain comes from the species named
# Settings: Homo sapiens
Note to self: class = bucket of abundance fitness, per low: < -0.1; mid: ≥ -0.1 and < -0.05; high: ≥ -0.05

>>> qualitative_label("D21G")
"mid"
>>> qualitative_label("R81G")
"high"
>>> qualitative_label("L77K")
"low"
>>> qualitative_label("C37G")
"low"
>>> qualitative_label("Q35V")
"mid"
>>> qualitative_label("R81W")
"low"
>>> qualitative_label("L32P")
"low"
>>> qualitative_label("S73M")
"high"
>>> qualitative_label("L45A")
"mid"
>>> qualitative_label("V63R")
"mid"
>>> qualitative_label("D33W")
"low"
>>> qualitative_label("Q26L")
"high"
>>> qualitative_label("L40V")
"mid"
>>> qualitative_label("S76N")
"high"
>>> qualitative_label("I49M")
"low"
>>> qualitative_label("I79R")
"low"
>>> qualitative_label("C37Y")
"high"
>>> qualitative_label("V47D")
"low"
>>> qualitative_label("V62Q")
"low"
>>> qualitative_label("I65Q")
"mid"
>>> qualitative_label("V47Y")
"low"
>>> qualitative_label("D64M")
"low"
>>> qualitative_label("I71R")
"mid"
>>> qualitative_label("Q55F")
"high"
>>> qualitative_label("S76M")
"high"
>>> qualitative_label("I65E")
"low"
>>> qualitative_label("D68G")
"mid"
>>> qualitative_label("Q35H")
"high"
>>> qualitative_label("S58G")
"high"
>>> qualitative_label("I65V")
"high"
>>> qualitative_label("D68V")
"high"
>>> qualitative_label("I71F")
"high"
>>> qualitative_label("D33T")
"high"
>>> qualitative_label("I65D")
"low"
>>> qualitative_label("T75V")
"high"
>>> qualitative_label("N56C")
"low"
>>> qualitative_label("S22C")
"low"
>>> qualitative_label("I71Q")
"low"
>>> qualitative_label("V63E")
"high"
>>> qualitative_label("V54G")
"low"
>>> qualitative_label("R81M")
"low"
>>> qualitative_label("K29I")
"low"
